Catalogue of Tm values
Experimental Protocol: melting temperature; fluorescence melt of hairpins on a sequencing array, two-state fit, raised by 9.35 °C to match UV melts
Condition: sodium 0.088 M
Your answer is read as °C, so omit the unit and give the number.

>  <Entry Sequence>
GATCATCTCCATGATC ((((((....))))))

>  <Tm, °C>
46.8

$$$$
>  <Entry Sequence>
GTGCTGGGAAACCAACAC (((.(((....))).)))

>  <Tm, °C>
44

$$$$
>  <Entry Sequence>
GAAGACGAAAGTCTCTTC ((((((....)))..)))

>  <Tm, °C>
51.6

$$$$

Input GGTAGACGAAAGTCCACC (((.(((....))).))) . Output Tm: 46.3

Note to self: Tm recorded for GTTCCGAAAGGAAC (((((....))))) was 66.9

For record GAGGCAGGAAACTGCCCC (.(((((....))))).) the listed Tm is 44.2

The sequence listed as GATCTGGGGCAGATC ((((((...)))))) shows Tm equal to 46.5

====

Experimental Protocol: folding enthalpy; higher = less favourable; fluorescence melt of hairpins on a sequencing array, two-state fit
Condition: sodium 0.088 M
Threshold check on folding enthalpy: at or above -30 kcal/mol gives 1 (yes), strictly below gives 0 (no).

>  <Entry Sequence>
GTGTCCGAAAGGAGGCAC ((((((....)))..)))

>  <Category Label>
1 (yes)

$$$$
>  <Entry Sequence>
GTAGCCGGAAACGACTAC ((((.((....)).))))

>  <Category Label>
0 (no)

$$$$
>  <Entry Sequence>
GCCTCCACGAAAGTGGGC (((..(((....))))))

>  <Category Label>
1 (yes)

$$$$
>  <Entry Sequence>
GATCGCCGGCGCGATC ((((((....))))))

>  <Category Label>
0 (no)

$$$$
>  <Entry Sequence>
GCGTTTCCGAAAGGACGC (((..(((....))))))

>  <Category Label>
1 (yes)

$$$$

Q. Item GATCCATGACTGGATC ((((((....)))))) with folding enthalpy of -30 kcal/mol or above?
A. 0 (no)

====

Experimental Protocol: folding enthalpy; higher = less favourable; fluorescence melt of hairpins on a sequencing array, two-state fit
Condition: sodium 0.088 M
Assign classes using reported folding enthalpy values and the ranges c1: < -30 kcal/mol; c2: ≥ -30 kcal/mol and < -20 kcal/mol; c3: ≥ -20 kcal/mol, please.

Here's what some known entries look like.
>  <Entry Sequence>
GGTGGCACGAAAGTGACC (((..(((....))))))

>  <Category Label>
c3

$$$$
>  <Entry Sequence>
GCTAGCGAAAGCTACAGC ((((((....)))..)))

>  <Category Label>
c3

$$$$
>  <Entry Sequence>
GACGAAGAAATTCGTC ((((((....))))))

>  <Category Label>
c1

$$$$
>  <Entry Sequence>
GGATATGGAAACATATTC (.(((((....))))).)

>  <Category Label>
c2

$$$$
>  <Entry Sequence>
GCGTCGAAACGC ((((....))))

>  <Category Label>
c3

$$$$

Q. Bin? GGACCCGAAAGGGATCC ((((((....))).)))
A. c2

Q. # classify by folding enthalpy band: GACCCCGGAAACGGGATC ((.((((....)))).))
A. c3
